All figures here come from ChEMBL document CHEMBL4020713.

target: UniProt:O95398; assay: Antagonist activity at recombinant human full length EPAC1 assessed as inhibition of EPAC1-mediated Rap1B (1 to 167 residues)-BODIPY GDP nucleotide exchange activity in presence of 20 uM cAMP
Catalogue of IC50 values

- chemical smiles: "N#C/C(=N\\Nc1cccc(Cl)c1)C(=O)c1cc(-c2ccccc2)on1"
  IC50: "> 150 µM"
- chemical smiles: "N#C/C(=N\\Nc1cc(Cl)cc(C(F)(F)F)c1)C(=O)c1noc2ccccc12"
  IC50: "4.6 µM"
- chemical smiles: "N#C/C(=N\\Nc1cc(Cl)cc(C(F)(F)F)c1)C(=O)c1cc(-c2ccccc2)on1"
  IC50: "9.5 µM"
- chemical smiles: "N#C/C(=N\\Nc1cc(C(F)(F)F)cc(C(F)(F)F)c1)C(=O)c1noc2ccccc12"
  IC50: "6.7 µM"
- chemical smiles: "N#C/C(=N\\Nc1cccc(Cl)c1)C(=O)c1cc(-c2ccco2)on1"
  IC50: "9.9 µM"
- chemical smiles: "N#C/C(=N\\Nc1ccc(Cl)c(C(F)(F)F)c1)C(=O)c1cc(-c2ccc(Cl)cc2)on1"
  IC50: "7.8 µM"
- chemical smiles: "N#C/C(=N\\Nc1ccc(Cl)c(C(F)(F)F)c1)C(=O)c1noc2ccccc12"
  IC50: "2.7 µM"

----------
Catalogue of IC50 values
biological target: UniProt O95398; experiment: Antagonist activity at recombinant human full length EPAC1 assessed as inhibition of EPAC1-mediated Rap1B (1 to 167 residues)-BODIPY GDP nucleotide exchange activity in presence of 20 uM cAMP

- chemical smiles: "N#C/C(=N\\Nc1cc(C(F)(F)F)cc(C(F)(F)F)c1)C(=O)c1cc(-c2ccccc2)on1"
  IC50: "7.2 µM"
- chemical smiles: "CC(C)(C)c1ccc(-c2cc(C(=O)/C(C#N)=N/Nc3ccc(C(F)(F)F)c(Cl)c3)no2)cc1"
  IC50: "9 µM"
- chemical smiles: "COc1ccc(-c2cc(C(=O)/C(C#N)=N/Nc3cccc(Cl)c3)no2)cc1"
  IC50: "11.4 µM"
- chemical smiles: "CC(C)(C)c1ccc(-c2cc(C(=O)/C(C#N)=N/Nc3ccc(Cl)c(C(F)(F)F)c3)no2)cc1"
  IC50: "7.3 µM"
- chemical smiles: "CC(C)(C)c1ccc(-c2cc(C(=O)/C(C#N)=N/Nc3cccc(Cl)c3)no2)cc1"
  IC50: "8.6 µM"
- chemical smiles: "COc1ccc(-c2cc(C(=O)/C(C#N)=N/Nc3cc(C(F)(F)F)cc(C(F)(F)F)c3)no2)cc1"
  IC50: "5.6 µM"
- chemical smiles: "CC(C)(C)c1cc(C(=O)/C(C#N)=N/Nc2cc(Cl)c(Cl)c(Cl)c2)no1"
  IC50: "2.7 µM"
- chemical smiles: "CC(C)(C)c1ccc(-c2cc(C(=O)/C(C#N)=N/Nc3cc(C(F)(F)F)cc(C(F)(F)F)c3)no2)cc1"
  IC50: "11.9 µM"
- chemical smiles: "N#C/C(=N\\Nc1ccc(C(F)(F)F)c(Cl)c1)C(=O)c1noc2ccccc12"
  IC50: "3 µM"

----------
target: Rap guanine nucleotide exchange factor 3 (Homo sapiens, UniProt O95398); test: Antagonist activity at recombinant human full length EPAC1 assessed as inhibition of EPAC1-mediated Rap1B (1 to 167 residues)-BODIPY GDP nucleotide exchange activity in presence of 20 uM cAMP
Sequence (O95398 whole entry, the tested form may be a part): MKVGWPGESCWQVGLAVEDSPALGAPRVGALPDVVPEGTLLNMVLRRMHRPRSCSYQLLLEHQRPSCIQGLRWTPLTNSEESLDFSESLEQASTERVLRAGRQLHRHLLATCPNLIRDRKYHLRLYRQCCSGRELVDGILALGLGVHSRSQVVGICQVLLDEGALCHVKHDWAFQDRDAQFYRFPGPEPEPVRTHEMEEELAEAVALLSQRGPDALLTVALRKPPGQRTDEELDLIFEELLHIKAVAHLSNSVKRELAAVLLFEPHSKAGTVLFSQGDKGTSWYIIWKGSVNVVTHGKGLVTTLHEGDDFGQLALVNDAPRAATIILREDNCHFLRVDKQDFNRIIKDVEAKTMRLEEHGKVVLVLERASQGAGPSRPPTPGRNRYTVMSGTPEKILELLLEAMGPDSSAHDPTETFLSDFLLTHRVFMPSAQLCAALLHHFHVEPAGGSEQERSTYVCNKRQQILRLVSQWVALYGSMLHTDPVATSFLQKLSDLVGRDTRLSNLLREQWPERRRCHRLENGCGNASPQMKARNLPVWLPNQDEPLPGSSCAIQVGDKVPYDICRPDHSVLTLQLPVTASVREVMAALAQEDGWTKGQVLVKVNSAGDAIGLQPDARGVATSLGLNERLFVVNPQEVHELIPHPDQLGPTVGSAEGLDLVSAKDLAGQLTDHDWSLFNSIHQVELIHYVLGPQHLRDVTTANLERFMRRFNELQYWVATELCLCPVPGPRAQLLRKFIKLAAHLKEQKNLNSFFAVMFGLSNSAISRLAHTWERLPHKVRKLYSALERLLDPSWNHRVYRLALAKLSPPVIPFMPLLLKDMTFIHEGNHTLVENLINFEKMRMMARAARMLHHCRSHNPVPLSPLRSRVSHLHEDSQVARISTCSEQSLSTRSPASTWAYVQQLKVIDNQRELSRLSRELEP
Rule: IC50 below 8 µM gives satisfied. Equal to or above 8 µM gives not satisfied.

- chemical smiles: "N#C/C(=N\\Nc1cc(F)cc(Cl)c1)C(=O)c1noc2ccccc12"
  answer label: "not satisfied"
- chemical smiles: "N#C/C(=N\\Nc1ccc(F)c(Cl)c1)C(=O)c1noc2ccccc12"
  answer label: "not satisfied"
- chemical smiles: "N#C/C(=N\\Nc1ccc(Cl)c(C(F)(F)F)c1)C(=O)c1cc(-c2ccco2)on1"
  answer label: "satisfied"
- chemical smiles: "N#C/C(=N\\Nc1cccc(Cl)c1)C(=O)c1noc2ccccc12"
  answer label: "not satisfied"
- chemical smiles: "N#C/C(=N\\Nc1cc(Cl)cc(C(F)(F)F)c1)C(=O)c1cc(-c2ccco2)on1"
  answer label: "satisfied"
